Test system: NCH517
ASSAY_NAME: Crystal violet proliferation assay, brain metastasis NCH517
Assay type: cell-based, human
PROTOCOL_CONDITIONS: brain metastasis cell line, 48 h, mean of three biological replicates ± standard deviation
EXPERIMENTAL_ENDPOINT: IC50 (nM)
Answer with a number only, understood to be in nM.

Q: NCH517 / IC50 / CC(=O)OC[C@H]1O[C@@H]([S][Au-][P+]2(c3ccccc3)c3ccn(C)c3-c3cccc4cccc2c34)[C@H](OC(C)=O)[C@@H](OC(C)=O)[C@@H]1OC(C)=O (stereo partly shown) : value?
A: 1600

====

Tested on: NCH551b
ASSAY_NAME: CellTiter-Glo proliferation assay, IDH-mutant glioma NCH551b
Type: cell-based, human
PROTOCOL_CONDITIONS: IDH-mutant glioma cell line, 48 h, mean of three biological replicates ± standard deviation
EXPERIMENTAL_ENDPOINT: IC50 (nM)
Answer with a number only, understood to be in nM.

Q: What measured IC50 goes with CC(=O)OC[C@H]1O[C@@H]([S][Au-][P+]2(c3ccccc3)c3ccn(C)c3-c3cccc4cccc2c34)[C@H](OC(C)=O)[C@@H](OC(C)=O)[C@@H]1OC(C)=O (stereo partly shown) [Compound 6] ?
A: 1230

====

System: HNO97
ASSAY_NAME: Crystal violet proliferation assay, head and neck cancer HNO97
Type: cell-based, human
PROTOCOL_CONDITIONS: head and neck cancer cell line, 48 h, mean of three biological replicates ± standard deviation
EXPERIMENTAL_ENDPOINT: pIC50
A value of pIC50 is the negative decimal logarithm of a concentration given in moles per litre.

Q: HNO97 / pIC50 / CC(=O)OC[C@H]1O[C@@H]([S][Au-][P+]2(c3ccccc3)c3ccn(C)c3-c3cccc4cccc2c34)[C@H](OC(C)=O)[C@@H](OC(C)=O)[C@@H]1OC(C)=O (stereo partly shown) [Compound 6] : value?
A: 5.26
